# Test Target: Cathepsin B (Homo sapiens, UniProt P07858)
# Assay Explanation: Inhibition of human cathepsin-B using Z-Val-Val-Arg-AMC as substrate up to 20 mins by fluorescence assay
We begin with a simple list: items and their reported IC50.

| Compound Structure | IC50 |
| --- | --- |
| N#CC1(NC(=O)[C@@H]2C[C@@H](S(=O)(=O)c3ccccc3C(F)(F)F)CN2)CC1 | > 25 µM |
| N#CC1(NC(=O)[C@@H]2C[C@@H](S(=O)(=O)c3ccccc3Cl)CN2C(=O)c2ccccc2)CC1 | 35.2 µM |
| N#CC1(NC(=O)[C@@H]2C[C@@H](S(=O)(=O)c3ccccc3)C[C@H]2C(=O)Nc2ccc(F)cc2)CC1 | > 25 µM |
| N#CC1(NC(=O)[C@@H]2C[C@@H](S(=O)(=O)c3ccccc3)C[C@H]2C(=O)N2CCOCC2)CCC1 | > 25 µM |

* * *

pIC50: −log10 of the molar value.
pIC50 tested on UniProtKB P07711: recorded values
Sequence (P07711 whole entry): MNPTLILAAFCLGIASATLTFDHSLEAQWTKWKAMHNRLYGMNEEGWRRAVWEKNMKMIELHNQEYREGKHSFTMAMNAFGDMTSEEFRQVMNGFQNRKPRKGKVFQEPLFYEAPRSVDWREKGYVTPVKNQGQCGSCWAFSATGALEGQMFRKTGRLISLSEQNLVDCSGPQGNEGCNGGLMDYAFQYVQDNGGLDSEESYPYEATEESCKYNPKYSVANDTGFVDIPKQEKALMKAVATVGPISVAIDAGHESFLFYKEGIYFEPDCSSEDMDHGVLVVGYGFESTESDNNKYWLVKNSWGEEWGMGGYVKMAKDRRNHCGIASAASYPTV

| Compound Structure | Rel | pIC50 |
| --- | --- | --- |
| N#CC1(NC(=O)[C@@H]2C[C@@H](S(=O)(=O)c3ccccc3)C[C@H]2C(=O)N2CCC2)CC1 | = | 4.47 |
| N#CC1(NC(=O)[C@@H]2C[C@@H](S(=O)(=O)c3ccccc3C(F)(F)F)CN2)CC1 | < | 4.60 |
| C[C@@H]1CN(C(=O)[C@@H]2C[C@H](S(=O)(=O)c3ccccc3)C[C@H]2C(=O)NC2(C#N)CC2)C[C@H](C)O1 | = | 5.57 |
| N#CC1(NC(=O)[C@@H]2C[C@@H](S(=O)(=O)c3ccccc3)C[C@H]2C(=O)N2CCOCC2)CCC1 | < | 4.60 |
| N#CC1(NC(=O)[C@@H]2C[C@@H](S(=O)(=O)c3ccccc3)C[C@H]2C(=O)N2CC3(COC3)C2)CC1 | = | 4.65 |
| CC(=O)N1C[C@H](S(=O)(=O)c2ccccc2Cl)C[C@H]1C(=O)NC1(C#N)CC1 | = | 4.53 |
| N#CC1(NC(=O)[C@@H]2C[C@@H](S(=O)(=O)c3ccccc3)C[C@H]2C(=O)N2CCCCC2)CC1 | = | 5.38 |
| N#CC1(NC(=O)[C@@H]2C[C@@H](S(=O)(=O)c3ccccc3)C[C@H]2C(=O)N2CCS(=O)(=O)CC2)CC1 | = | 4.80 |
| N#CC1(NC(=O)[C@@H]2C[C@@H](S(=O)(=O)c3ccccc3)C[C@H]2C(=O)N2CCC(O)CC2)CC1 | = | 5.34 |

* * *

# Assay Explanation: Drug degradation in NMRI mouse plasma at 1000 ng/mL after 4 hrs
# Assay type: ADME, cell-free
# Condition Description: read-out: Drug degradation

| Compound Structure | metabolised at 4 h, 1000 ng/mL |
| --- | --- |
| N#CC1(NC(=O)[C@@H]2C[C@@H](S(=O)(=O)c3ccccc3Cl)CN2C(=O)c2ccccc2)CC1 | > 90% |
| N#CC1(NC(=O)[C@@H]2C[C@@H](S(=O)(=O)c3ccccc3Cl)CN2C(=O)C2CCCCC2)CC1 | > 90% |

* * *

# Test Target: Cathepsin S (Homo sapiens)
# Sequence (P25774 whole entry): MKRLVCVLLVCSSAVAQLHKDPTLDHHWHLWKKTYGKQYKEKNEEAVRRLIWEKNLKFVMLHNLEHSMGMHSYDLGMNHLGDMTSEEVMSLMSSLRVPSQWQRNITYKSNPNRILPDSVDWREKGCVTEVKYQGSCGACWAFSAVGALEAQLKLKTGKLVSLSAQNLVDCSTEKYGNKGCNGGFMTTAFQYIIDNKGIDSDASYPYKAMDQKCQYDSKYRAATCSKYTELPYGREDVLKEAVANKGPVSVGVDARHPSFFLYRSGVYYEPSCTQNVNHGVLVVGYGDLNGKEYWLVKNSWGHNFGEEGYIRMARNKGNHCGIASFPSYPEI
We begin with a simple list: items and their reported IC50.
Measured Parameter: IC50 (nM)

| Molecule | Test Target | Reading Unit | Assay Value |
| --- | --- | --- | --- |
| COc1ccc(C(C#N)NC(=O)[C@@H]2CCCC[C@@H]2NC(=O)/C=C/c2ccccc2)cc1OC (some centres undefined) | Cathepsin S (Homo sapiens) | nM | 640 |
| N#CC1(NC(=O)[C@@H]2C[C@@H](S(=O)(=O)c3ccccc3)C[C@H]2C(=O)N2CCC2)CC1 | Cathepsin S (Homo sapiens) | nM | 10 |
| N#CC1(NC(=O)[C@@H]2C[C@@H](S(=O)(=O)c3ccccc3)C[C@H]2C(=O)Nc2ccc(F)cc2)CC1 | Cathepsin S (Homo sapiens) | nM | 26 |
| N#CCNC(=O)[C@@H]1C[C@@H](S(=O)(=O)c2ccccc2)C[C@H]1C(=O)N1CCOCC1 | Cathepsin S (Homo sapiens) | nM | 0.7 |
